Values were extracted from PubChem BioAssay (NCI).

Known growth of a selection of molecules
Tested on: LOX IMVI melanoma
Experiment: NCI-60 one-dose screen, 48 h (100 = growth as untreated, 0 = no growth, -100 = all killed)
Details: 10 µM unless noted
This is part of a sample that, as a whole, favours compounds with a hit. Of some 83,000 tested, about 20% had one in any assay.

molecule | target system | growth / %
COc1ccc(-c2cc(Cc3cccs3)c(=O)n(Cn3ccc4ccccc43)n2)cc1 | LOX IMVI melanoma | 96.5
CN(C)c1ccc2[nH]c3c(C(N)=O)cc(=O)c(=O)c=3oc2c1 | LOX IMVI melanoma | 8.85
Clc1ccc(-c2nc(-c3cccs3)no2)c(Cl)c1 | LOX IMVI melanoma | 103
O=C(Nc1nc2ccccc2s1)c1cc(-c2ccc(F)cc2)n2nc(-c3ccccc3)cc2n1 | LOX IMVI melanoma | 45.6
O=c1c(O)cccn1CCCNCCCN(CCCn1cccc(O)c1=O)CCCn1cccc(O)c1=O | LOX IMVI melanoma | 83.8
O=C(c1ccccc1)c1ccccc1Cl | LOX IMVI melanoma | 107
NC(=O)SCC(=O)Nc1ccccc1-c1ccccc1 | LOX IMVI melanoma | 90.6
O=C(CCc1nnc2sc(Cc3ccccc3Cl)nn12)c1nc2ccccc2[nH]1 | LOX IMVI melanoma | 87.9
Cc1ccsc1/C=C/C1=NCCCN1C | LOX IMVI melanoma | 95.6
Clc1ccc(CCC(Cn2ccnc2)Sc2c(Cl)cccc2Cl)cc1 (centres undefined) | LOX IMVI melanoma | 40.5
Cc1cc(C(C)(C)C)cc(C)c1CC1=NCCN1 | LOX IMVI melanoma | 95
O=C(NN(C(=O)c1ccccc1)c1cccs1)c1ccccc1 | LOX IMVI melanoma | 93.7
CC1=NN(c2ccccc2Cl)C(=O)/C1=C\c1cn(S(=O)(=O)c2ccc(C)cc2)c2ccccc12 | LOX IMVI melanoma | 97.4
Cc1ccc2c(c1)C(=O)/C(=C/c1ncc([N+](=O)[O-])n1C)O2 | LOX IMVI melanoma | -3.36
Cc1nc2c(O)cccc2cc1CO | LOX IMVI melanoma | 106
COC(=O)[C@]12CC[C@@H](C)[C@H](C)[C@@H]1C1=CC[C@@H]3[C@@]4(C)C=C(O)C(=O)[C@@]5(C)COC(=C54)C[C@@]3(C)[C@]1(C)CC2 | LOX IMVI melanoma | -98.8
Cc1nn(-c2ccc(Br)cc2)c2nc3c(nc12)C(=O)C(=O)c1ccccc1-3 | LOX IMVI melanoma | 88.1
Cc1cc(=O)n2n1-c1ccc(Cl)cc1NC(=O)C2 | LOX IMVI melanoma | 98.6
O=C(Nc1nc(-c2ccc(Cl)cc2)cs1)c1cc(O)c(O)c(O)c1 | LOX IMVI melanoma | 1.72
COc1ccc(C2=NN(C(=O)c3cc(OC)c(OC)c(OC)c3)C(c3ccc(C#N)cc3)C2)cc1OC (centres undefined) | LOX IMVI melanoma | 33.6
c1ccc(Nc2nnc(-c3cc(-c4cccnc4)n(-c4ccccc4)n3)s2)cc1 | LOX IMVI melanoma | 69.8
Cn1[nH]cc(/C=N/C(N)=O)c1=O | LOX IMVI melanoma | 96.1
N#Cc1ccc(NC(=O)Nc2ccc(Oc3ccc(NC(=O)Nc4ccc(C#N)cc4)cc3)cc2)cc1 | LOX IMVI melanoma | 35.4
Cc1nn(-c2ccc(Cl)cc2)c2nc3c(nc12)C(=O)c1ccccc1-3 | LOX IMVI melanoma | 51.2

====

Tested on: NCI/ADR-RES ovarian
Experiment: NCI-60 one-dose screen, 48 h
Settings: 10 µM unless noted
The panel holds about 83,000 compounds, 20% with a hit somewhere; the sample as a whole holds those more often. Calls of active or inactive are those of the source. Rule for the calls: active = growth percent below 10; inactive = the rest.
Classes used: active, inactive

line notation | classification
Cn1cc(-c2csc(-c3cn(C)c4ncccc34)n2)c2cc(F)cnc21 | inactive
CC(=O)n1c2ccccc2c2ccccc21 | inactive
O=C1C(=O)c2ccc(Br)cc2-c2cc(Br)ccc21 | active

====

Known growth of a selection of molecules
Test system: COLO 205 colon
Test: NCI-60 one-dose screen, 48 h (100 = growth as untreated, 0 = no growth, -100 = all killed)
Settings: 10 µM unless noted
About 83,000 compounds went through this panel and 20% of them were active in at least one assay; those are over-represented in the sample as a whole.
result type: growth (%)

line notation | result type | unit label | result number
COC(=O)CCC1=C(C)/C(=C/c2[nH]c(-c3ccc[nH]3)cc2OC)N=C1C | growth | % | 12.1
CCOc1nc(-c2ccccc2)cc2c(O)c(-c3nnco3)[nH]c(=O)c12 | growth | % | 72.2
O=C1CN(CO)C(=O)CN1CO | growth | % | 116
CN(CC(=O)Nc1nc2ccccc2[nH]1)S(=O)(=O)c1ccc(Cl)cc1 | growth | % | 95.6
CCCCCCCCCCCCCCCCCC1=NC(C)(C)CN1CCO | growth | % | -59.9

====

Test system: EKVX NSCLC
Assay: NCI-60 one-dose screen, 48 h (100 = growth as untreated, 0 = no growth, -100 = all killed)
Conditions: 10 µM unless noted
About 83,000 compounds went through this panel and 20% of them were active in at least one assay; those are over-represented in the sample as a whole.
result type: growth (%)

molecule | result type | result number
COc1ccc2nc(NC(=O)c3cc(-c4ccc(F)cc4)n4nc(-c5ccccc5)cc4n3)sc2c1 | growth | 79.5
c1csc([C@@H]2C[C@@H]3Cc4ccc5ccccc5c4N2O3)c1 | growth | 78.8
Cc1ccccc1-c1cc(Cc2ccccc2O)c(=O)[nH]n1 | growth | 67
C=CC1=C(C(=O)O)N2C(=O)[C@@H](NC(=O)/C(=N\O)c3csc(N)n3)[C@H]2SC1 (stereo in doubt) | growth | 103
CCN(CC)CCCNCCCNc1cc(OC)cc2cccnc12 | growth | 80.7
Cc1ccc([N+](=O)[O-])cc1NC(=O)Nc1cccc(F)c1 | growth | 48.6
O=C(/C=C/c1cccnc1)NCCCCC1CCCN(C(=O)c2ccccc2)C1 (configuration not stated) | growth | 106

====

Tested on: KM12 colon
Test: NCI-60 one-dose screen, 48 h (100 = growth as untreated, 0 = no growth, -100 = all killed)
Conditions: 10 µM unless noted
Compounds without any hit were thinned out: in the full panel of roughly 83,000, 20% have a hit.
Known growth of a selection of compounds
result type: growth (%)

compound | result type | result number
N#Cc1c(N2CCOCC2)nc2sc3cc(Cl)ccc3n2c1=N | growth | 82.3
CCC1=C(c2ccc(OC)cc2)C(C)(C)Oc2cc(O)c(CN3CCCC3)cc21 | growth | 81.1
COc1c(O)cc2oc3cc(O)c(CC=C(C)C)c(O)c3c(=O)c2c1C/C=C(\C)CCC=C(C)C | growth | 25
CCOC(=O)C1=NN(c2ccc(Cl)cc2)C2C3N(c4ccc(Cl)cc4)N=C(C(=O)OCC)N3c3ccccc3N12 (configuration not stated) | growth | 103
COc1ccc(Cn2cc3c(c2-c2ccccc2)CCc2cncnc2-3)cc1 | growth | 26.6
CN(CC(=O)Nc1nc2ccccc2[nH]1)S(=O)(=O)c1ccc(Cl)cc1 | growth | 105
COc1ccc2c(c1)nc(N)c1c3cc(C)c(C)cc3cn21 | growth | 46.8
CN(C(=O)c1ccccc1)N(C)C(=O)c1ccccc1 | growth | 113
C=C(C)[C@H]1CC/C(C)=C/CC[C@]2(C)O[C@H]2CC/C(COC(C)=O)=C\C1=O | growth | 143
Cc1cc(Cl)ccc1Nc1nc(C(F)(F)F)ccc1C(=O)NCC(=O)N/N=C/c1c(Cl)cccc1Cl | growth | 50.4
COc1ccc(C(=O)COc2cccc(/C=C3\Oc4ccc5ccccc5c4C3=O)c2)cc1 | growth | 97.9
Cc1cc2c(C#N)n3c(c2cc1C)C(=O)C(c1ccccc1)Oc1ccccc1-3 (configuration not stated) | growth | 15.2

====

Tested on: SK-MEL-28 melanoma
Assay: NCI-60 one-dose screen, 48 h
Conditions: 10 µM unless noted
The panel holds about 83,000 compounds, 20% with a hit somewhere; the sample as a whole holds those more often. Activity calls are given as the source filed them. Rule for the calls: active = growth percent below 10; inactive = the rest.
Classes used: active, inactive

compound | classification
CN(C)c1nc(N)nc(Cn2c(-c3nonc3N)nc3ccccc32)n1 | inactive
CC1=CSC2=NCCN12 | inactive
Cc1cc2cn3c4cccnc4[nH]c(=O)c3c2cc1C | inactive
Cc1cc(C)n(C(=O)c2nn(-c3ccc(Cl)cc3)cc2O)n1 | inactive
COc1cc(/C=C/C(=O)c2ccc(F)cc2)ccc1OCCCCCOc1cc2c(cc1OC)C(=O)N1CCCC1C=N2 (configuration not stated) | active
Cc1cc(C(=O)O)c(C)cc1C(=O)O | inactive
COc1ccc2[nH]cc(/C=C3/C(=O)Nc4ccc(Cl)cc43)c2c1 | inactive
Clc1nc(Cl)c2ncn(-c3ccccc3)c2n1 | inactive
COc1ccc(-n2nnc(C(=O)O)c2-c2cc(OC)c(OC)c(OC)c2)cc1 | inactive
O=C(CCc1nnc(SCc2ccccc2)s1)c1nc2ccccc2[nH]1 | inactive
CCN1C2=C(SC(=S)C1=C1SC(C(=O)OC)=C(C(=O)OC)S1)SC(=Nc1ccc(OC)cc1)C2=O | active
O=C(Nc1ccc(Cl)cc1)Nc1ccc(Nc2nncc3ccccc23)cc1 | inactive
CCn1c2c(c3ccccc31)SC1c3cccn3CCN1C2=S (configuration not stated) | inactive
CCOC(=O)C1C(=O)OC2CCCCC21 (configuration not stated) | inactive
O=C1CN(CO)C(=O)CN1CO | inactive
COc1cccc(C2C(C#N)=C(N)Oc3cc(OC)ccc32)c1 (configuration not stated) | inactive
Clc1ccc2c(Nc3ccc4oc(NCCN5CCCC5)nc4c3)ccnc2c1 | inactive
CCc1ccc(CCN2C(=O)c3ccccc3C2=O)nc1 | inactive
COc1cc(C(=O)/C=C/c2cccnc2Nc2ccccc2)cc(OC)c1OC | active
CC/C(=C\c1ccc(N(C)C)cc1)c1ccncc1 | inactive
CCC[C@H](N[C@@H](C)C(=O)N1[C@H](C(=O)O)C[C@@H]2CCCC[C@@H]21)C(=O)OCC | inactive
c1coc([C@@H]2C[C@@H]3Cc4ccc5ccccc5c4N2O3)c1 | inactive
